Exercise: for every item that follows, state its recorded normalised cell viability.
Test system: NCI-H1944
Assay: normalised cell viability (NPI; 0 = phenylarsine oxide control, 1 = DMSO control) (fraction of DMSO control); higher = more viable cells (less compound toxicity)
Conditions: glucocorticoid arm: hydrocortisone 2.75 uM pre-treated 2 days and continued; compound 5 µM; 6 days
Where a name gives a salt, the structure may show the parent alone. The full ranking holds about 1,900 compounds; the median of “normalised cell viability (NPI; 0 = phenylarsine oxide control, 1 = DMSO control)” is about 1, and the lowest 2% start at about 0.039. What follows is part of a selection rich in the lowest values, with near analogues and random picks from the rest.
Answers are plain numbers.

Report normalised cell viability for each item below.
1. Clc1ccc(C(c2ccc(Cl)cc2)[n+]2ccn(CC(OCc3ccc(Cl)cc3Cl)c3ccc(Cl)cc3Cl)c2)cc1 (centres undefined) [Calmidazolium chloride]
2. O=C(O)CCC(NC(=O)c1ccccc1C(=O)O)C(=O)O [Phthalamoyl-L-glutamic acid trisodium]
3. CS(=O)(=O)N1CCc2c(-c3cnc(N)nc3)nc(N3CCOCC3)nc21
4. CNC(=N)NCCC[C@H](N)C(=O)O [NG-Monomethyl-L-arginine acetate]
5. NCC(O)C1CCCCCCC1 (centres undefined) [2-Cyclooctyl-2-hydroxyethylamine hydrochloride]
6. O=C(O)[C@H]1NCCC[C@H]1C(=O)O (relative stereo) [cis-Piperidine-2,3-dicarboxylic acid]
7. FC(F)c1nc2ccccc2n1-c1nc(N2CCOCC2)nc(N2CCOCC2)n1
8. Nc1cc(C(F)(F)F)c(-c2cc(N3CCOCC3)nc(N3CCOCC3)n2)cn1

Output line:
-0.000224
1.03
0.627
0.879
0.972
0.973
0.702
0.411

Input line: normalised cell viability for S=C(S)N1CCCC1 [Ammonium pyrrolidinedithiocarbamate] ?
Output line: 1

---

System: NCI-H1944;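 note: CTB read-out in 384-well plates, triplicate wells, NPI normalised per plate against 1 µM phenylarsine oxide (0) and 0.1% DMSO (1) controls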
Test: normalised cell viability (NPI; 0 = phenylarsine oxide control, 1 = DMSO control) (fraction of DMSO control); NCI-H1944 is a non-small cell lung cancer line; higher = more viable cells (less compound toxicity)
Settings: glucocorticoid arm: hydrocortisone 2.75 uM pre-treated 2 days and continued; compound 1 µM; 6 days
Where a name gives a salt, the structure may show the parent alone. The full ranking holds about 1,900 compounds; the median of “normalised cell viability (NPI; 0 = phenylarsine oxide control, 1 = DMSO control)” is about 1, and the lowest 2% start at about 0.039. The full list was thinned out, with the lowest values kept by preference.
MEASURED PROPERTY: normalised cell viability
Answers are plain numbers.

INSERT INTO results (compound, measured_property, observed_value) VALUES
  ('O=C(CCCCCCC(=O)Nc1ccccc1)NO [Vorinostat (SAHA, MK0683)]', 'normalised cell viability', 0.959),
  ('O=C(CCCCCCC(=O)Nc1ccccc1)NO [Vorinostat; SAHA]', 'normalised cell viability', 0.95),
  ('CC1c2cccc(O)c2C(O)=C2C(=O)C3(O)C(O)=C(C(N)=O)C(=O)C(N(C)C)C3C(O)C21 (stereo not drawn) [Doxycycline hydrochloride]', 'normalised cell viability', 0.99);

# batch size: 3; output normalised cell viability per entry
1. O=C(CCCCCCC(=O)Nc1ccccc1)NO
2. c1cc(CN2CCCNCCNCCCNCC2)ccc1CN1CCCNCCNCCCNCC1 [Plerixafor]
3. CC(C)(C)OC(=O)Nc1ccc(-c2cc(C(=O)NCCCCCCC(=O)NO)no2)cc1

Output line:
1: 0.978; 2: 1.01; 3: 0.991

I would be grateful if you could provide normalised cell viability for each of the following entries.
1. CC(=O)NC(C(=O)O)C(C)(C)SN=O (stereo not drawn) [S-Nitroso-N-acetylpenicillamine]
2. CO[C@@]12[C@H](COC(N)=O)C3=C(C(=O)C(C)=C(N)C3=O)N1C[C@@H]1N[C@@H]12 [Mitomycin; Mitomycin C]

Output line:
1. 1.01
2. 1.02
